Data origin: the supplement of paper PMC10567573

B1: CDC25A (parent)
chain: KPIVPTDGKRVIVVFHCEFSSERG

# Variants of: B1
# assay notes: protein stability index of a GFP-peptide fusion (GPS, HEK-293T) (PSI 1-6); higher = more stable;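 note: lentivirally expressed fusions sorted by FACS into six bins by GFP to DsRed ratio, PSI derived from sequencing read proportions per bin multiplied by bin number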
# test context: c terminus: a fixed tail appended
Each entry falls into one class according to its protein stability index; the ranges are lo: < 2; med: ≥ 2 and < 3; hi: ≥ 3

variant key	label value
R10I	lo
E18F	hi
F19D	med
D7E	med
E18D	lo
E18H	hi

Request: Tag the class for "I12F"
Result: hi

Request: Tag the class for "S20M"
Result: med

Request: Tag the class for "K1P"
Result: med

Request: Tag the class for "P2F"
Result: med

Request: Tag the class for "K9E"
Result: med

Request: Tag the class for "P2S"
Result: lo

Request: Tag the class for "F15A"
Result: med

Request: Tag the class for "T6M"
Result: med

Request: Tag the class for "K9A"
Result: lo

Request: Tag the class for "D7L"
Result: hi

Request: Tag the class for "G24W"
Result: hi
